- STUDY TARGET: Ephrin type-B receptor 3 (Homo sapiens) (UniProt P54753);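 note: reported value is the mean percent inhibition of EPHB3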
- Sequence (P54753 whole entry): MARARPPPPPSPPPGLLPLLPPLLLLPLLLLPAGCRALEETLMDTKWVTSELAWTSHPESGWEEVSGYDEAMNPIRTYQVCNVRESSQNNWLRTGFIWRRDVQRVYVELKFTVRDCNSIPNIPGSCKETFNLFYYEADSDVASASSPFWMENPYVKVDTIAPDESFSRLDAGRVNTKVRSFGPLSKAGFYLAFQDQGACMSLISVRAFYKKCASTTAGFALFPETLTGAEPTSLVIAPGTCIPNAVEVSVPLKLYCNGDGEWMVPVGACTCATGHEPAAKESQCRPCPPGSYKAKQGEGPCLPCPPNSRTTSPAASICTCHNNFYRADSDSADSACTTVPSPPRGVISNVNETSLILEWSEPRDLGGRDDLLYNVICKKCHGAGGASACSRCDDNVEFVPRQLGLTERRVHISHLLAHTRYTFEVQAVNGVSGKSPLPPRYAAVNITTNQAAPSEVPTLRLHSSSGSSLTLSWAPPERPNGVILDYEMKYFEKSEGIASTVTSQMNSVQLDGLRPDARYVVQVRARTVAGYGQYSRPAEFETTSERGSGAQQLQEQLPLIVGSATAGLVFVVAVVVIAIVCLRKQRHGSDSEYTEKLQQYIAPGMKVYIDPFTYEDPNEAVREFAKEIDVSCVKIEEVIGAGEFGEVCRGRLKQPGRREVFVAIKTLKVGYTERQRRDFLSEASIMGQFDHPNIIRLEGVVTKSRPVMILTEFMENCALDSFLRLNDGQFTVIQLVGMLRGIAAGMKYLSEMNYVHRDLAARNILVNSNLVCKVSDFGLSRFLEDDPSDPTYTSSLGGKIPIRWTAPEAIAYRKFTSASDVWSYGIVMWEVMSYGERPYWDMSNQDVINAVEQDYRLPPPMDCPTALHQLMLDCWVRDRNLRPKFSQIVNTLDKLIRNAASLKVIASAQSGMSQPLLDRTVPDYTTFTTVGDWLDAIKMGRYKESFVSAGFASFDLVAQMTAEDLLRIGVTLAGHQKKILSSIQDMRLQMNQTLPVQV
- ASSAY CONDITIONS: at 0.1 µM
Let's look at some molecules and their measured inhibition.
Give the number; % is assumed, so skip it.

Record excerpt, results attached:
[
  {
    "MOLECULE": "N#Cc1c(NC(=O)c2cccc3ccccc23)sc2c1CCCC2",
    "STUDY TARGET": "Ephrin type-B receptor 3 (Homo sapiens) (UniProt P54753)",
    "inhibition (%)": 5.39
  },
  {
    "MOLECULE": "CCn1c(-c2nonc2N)nc2c(N3CCCC3)nccc21",
    "STUDY TARGET": "Ephrin type-B receptor 3 (Homo sapiens) (UniProt P54753)",
    "inhibition (%)": -2.28
  },
  {
    "MOLECULE": "NCc1ccc(-c2nc(-c3ccc(Cl)c(O)c3)c(-c3ccncc3)[nH]2)cc1",
    "STUDY TARGET": "Ephrin type-B receptor 3 (Homo sapiens) (UniProt P54753)",
    "inhibition (%)": 5.47
  },
  {
    "MOLECULE": "Cc1nnc(-c2ccc(C)c(-c3ccc(C(=O)Nc4cccc(C#N)c4)cc3)c2)o1",
    "STUDY TARGET": "Ephrin type-B receptor 3 (Homo sapiens) (UniProt P54753)",
    "inhibition (%)": 4.01
  },
  {
    "MOLECULE": "Fc1cccc(COc2ccc(Nc3ncnc4cc(-c5ccc[nH]5)sc34)cc2Cl)c1",
    "STUDY TARGET": "Ephrin type-B receptor 3 (Homo sapiens) (UniProt P54753)",
    "inhibition (%)": 0.75
  },
  {
    "MOLECULE": "CC(C)=Cc1cccc2c1/C(=N/Nc1ccc(S(N)(=O)=O)cc1)C(=O)N2",
    "STUDY TARGET": "Ephrin type-B receptor 3 (Homo sapiens) (UniProt P54753)",
    "inhibition (%)": 2.65
  }
]

Q: # return recorded inhibition for input CCCN1CCC=C(c2ccc(Nc3nc(Nc4ccccc4C(N)=O)c4cc[nH]c4n3)c(C)c2)C1
Ans: 1.76

Q: Name the recorded inhibition of the item CNC(=O)c1cncc(/C=C/c2c(Cl)cccc2Cl)c1 in your answer.
Ans: -2.12

###

- STUDY TARGET: Fibroblast growth factor receptor 1 (Homo sapiens) (UniProt P11362)
- Sequence (P11362 22-822 limits assumed): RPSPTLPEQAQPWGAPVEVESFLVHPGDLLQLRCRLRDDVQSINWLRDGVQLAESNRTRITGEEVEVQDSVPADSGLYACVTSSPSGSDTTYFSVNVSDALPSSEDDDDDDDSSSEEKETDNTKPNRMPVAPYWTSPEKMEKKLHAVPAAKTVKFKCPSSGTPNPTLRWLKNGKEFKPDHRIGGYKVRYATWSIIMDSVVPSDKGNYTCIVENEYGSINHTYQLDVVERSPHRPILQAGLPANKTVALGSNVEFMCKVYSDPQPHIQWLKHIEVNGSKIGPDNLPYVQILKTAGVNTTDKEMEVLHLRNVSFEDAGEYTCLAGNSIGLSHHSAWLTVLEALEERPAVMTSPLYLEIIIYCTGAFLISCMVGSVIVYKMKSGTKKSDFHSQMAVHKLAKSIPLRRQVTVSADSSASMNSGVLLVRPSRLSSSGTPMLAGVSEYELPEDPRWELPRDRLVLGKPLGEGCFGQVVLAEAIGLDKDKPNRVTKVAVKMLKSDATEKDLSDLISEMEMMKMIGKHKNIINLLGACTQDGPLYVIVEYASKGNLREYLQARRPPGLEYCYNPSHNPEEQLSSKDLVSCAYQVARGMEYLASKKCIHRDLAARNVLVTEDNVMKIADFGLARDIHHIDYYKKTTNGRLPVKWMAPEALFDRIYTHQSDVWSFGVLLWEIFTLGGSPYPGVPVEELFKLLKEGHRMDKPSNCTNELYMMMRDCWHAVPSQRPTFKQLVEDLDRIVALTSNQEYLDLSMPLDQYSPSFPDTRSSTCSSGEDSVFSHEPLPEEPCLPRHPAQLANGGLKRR
- ASSAY CONDITIONS: at 1 µM
METRIC NAME: inhibition (%)
// note: answer is a bare numeric in %

Please review the following examples before continuing.
[
  {
    "COMPOUND": "COc1cc2ncn(-c3cc(OCc4ccccc4Cl)c(C(N)=O)s3)c2cc1OC",
    "STUDY TARGET": "Fibroblast growth factor receptor 1 (Homo sapiens) (UniProt P11362)",
    "inhibition (%)": 8.43
  },
  {
    "COMPOUND": "CN(C)c1cc2c(Nc3ccc4nc(Cc5ccccc5)[nH]c4c3)ncnc2cn1",
    "STUDY TARGET": "Fibroblast growth factor receptor 1 (Homo sapiens) (UniProt P11362)",
    "inhibition (%)": 15.2
  },
  {
    "COMPOUND": "CS(=O)(=O)Nc1ccc(N/C=C2\\C(=O)Nc3ccccc32)cc1",
    "STUDY TARGET": "Fibroblast growth factor receptor 1 (Homo sapiens) (UniProt P11362)",
    "inhibition (%)": 5.82
  },
  {
    "COMPOUND": "COc1ccccc1Nc1ncc(-c2ccccc2)o1",
    "STUDY TARGET": "Fibroblast growth factor receptor 1 (Homo sapiens) (UniProt P11362)",
    "inhibition (%)": 5.99
  },
  {
    "COMPOUND": "N#Cc1c(NC(=O)c2cccc3ccccc23)sc2c1CCCC2",
    "STUDY TARGET": "Fibroblast growth factor receptor 1 (Homo sapiens) (UniProt P11362)",
    "inhibition (%)": 2.06
  }
]

Q: Retrieve inhibition on Fibroblast growth factor receptor 1 (Homo sapiens) (UniProt P11362); query COC(=O)Nc1nc2cc(Oc3cccc(NC(=O)Nc4cc(C(F)(F)F)ccc4F)c3)ccc2[nH]1
Ans: 0

Q: Please respond with reported inhibition (system Fibroblast growth factor receptor 1 (Homo sapiens) (UniProt P11362)) for COc1cc(C)c(NC(=O)CN(C)C)cc1Nc1nc(Nc2cccc(F)c2C(N)=O)c2cc[nH]c2n1 .
Ans: 1.43

Q: Provide inhibition, system Fibroblast growth factor receptor 1 (Homo sapiens) (UniProt P11362), entry COc1cc2ncn(-c3cc(O[C@H](C)c4ccccc4Cl)c(C(N)=O)s3)c2cc1OC
Ans: 29.4

Q: Recall the reported inhibition of COc1ccc(-c2nn3ncccc3c2-c2ccnc(Nc3ccc(Cl)c(C(F)(F)F)c3)n2)cc1 on Fibroblast growth factor receptor 1 (Homo sapiens) (UniProt P11362) and write it down.
Ans: -2.37

Q: Provide inhibition, tested on Fibroblast growth factor receptor 1 (Homo sapiens) (UniProt P11362), for CC1=C(C(=O)Nc2ccc3[nH]ncc3c2)C(c2ccc3ccccc3c2)CC(=O)N1 (stereo not given) .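 Note: values are the mean percent inhibition of FGFR1 across replicate measurements.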
Ans: 13.2
